IC50, Thromboxane A2 receptor (Homo sapiens), per-entry values.
Write it as a number; the unit nM goes unstated.

// below: answered molecules
- chemical.string: "CC1(C)[C@H]2C[C@H](C/C=C\\CCCC(=O)O)[C@@H](NC(=O)c3csc4ccccc34)[C@@H]1C2"
  reported.endpoint: "IC50"
  experimental.result: 380
- chemical.string: "CC1(C)[C@H]2C[C@H](C/C=C\\CCCC(=O)O)[C@@H](NC(=O)c3ccc(/N=N/c4ccccc4)cc3)[C@@H]1C2"
  reported.endpoint: "IC50"
  experimental.result: 150
- chemical.string: "O=C(O)CCC/C=C\\C[C@H]1[C@@H]2CC[C@@H](C2)[C@@H]1NS(=O)(=O)c1ccc2ccccc2c1"
  reported.endpoint: "IC50"
  experimental.result: 0.13
- chemical.string: "CC1(C)[C@H]2C[C@H](C/C=C\\CCCC(=O)O)[C@@H](NS(=O)(=O)c3ccc(/N=N/c4ccccc4)cc3)[C@@H]1C2"
  reported.endpoint: "IC50"
  experimental.result: 740
- chemical.string: "CC1(C)[C@H]2C[C@H](C/C=C\\CCCC(=O)O)[C@@H](NC(=O)c3ccc4oc5ccccc5c4c3)[C@@H]1C2"
  reported.endpoint: "IC50"
  experimental.result: 270

Next, consider the following molecule.
Ask: Reported IC50 for CC1(C)[C@H]2C[C@H](C/C=C\CCCC(=O)O)[C@@H](NC(=O)c3cccc4ccsc34)[C@@H]1C2 : what is it?
Reply: 210
